# Study System: T1, monovalent hVISTA-ECD (human VISTA extracellular domain with His tail) (human, UniProt Q9H7M9 33-193)
# T1 construct: analyte flowed over captured antibody; also called huVISTA-His
# T1 sequence (Q9H7M9 other isoform, or with tags, fused parts or gaps limits assumed): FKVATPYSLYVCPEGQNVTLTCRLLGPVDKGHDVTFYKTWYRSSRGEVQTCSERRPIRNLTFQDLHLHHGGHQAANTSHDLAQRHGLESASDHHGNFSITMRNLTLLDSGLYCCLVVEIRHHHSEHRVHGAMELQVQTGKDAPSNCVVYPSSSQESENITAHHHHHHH
# Measurement Description: SPR, pH 7.4
Provide the reported kd improvement vs parent of each item.
# do not omit the unit; it follows the number

**Query** Dear colleague, I am looking for the recorded kd improvement vs parent of the following binder: P1-064490 (41F11_VH_F27EY50EL96E) (antibody, V domains shown, Kabat positions; also called P1-064490-1; P1-064490-2) VH: QVQLVESGGGLVKPGGSLRLSCAASGETFSDYYMSWIRQAPGKGLEWVSEISNSGSPIYYADSVKGRFTISRDNAKNSLYLQMNSLRAEDTAVYYCARDEPGWYFDLWGRGTLVTVSS VL: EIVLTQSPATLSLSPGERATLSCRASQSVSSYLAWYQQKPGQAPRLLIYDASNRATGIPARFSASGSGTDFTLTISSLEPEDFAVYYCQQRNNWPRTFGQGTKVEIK
**Result** 0.3 fold

**Query** Then P1-065064 (41F11_LC_Mutant: V29D/A64G/R91T) (antibody, V domains shown, Same printed description as P1-063001 under another ID; also called P1-065064-1) VH: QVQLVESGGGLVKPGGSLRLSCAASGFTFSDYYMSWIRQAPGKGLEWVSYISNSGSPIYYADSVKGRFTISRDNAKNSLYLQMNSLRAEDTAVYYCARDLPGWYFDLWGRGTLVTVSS VL: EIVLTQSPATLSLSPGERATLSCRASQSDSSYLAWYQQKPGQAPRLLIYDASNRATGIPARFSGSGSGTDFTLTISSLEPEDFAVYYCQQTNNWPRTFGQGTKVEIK ?
**Result** 7.4 fold
